system: EKVX NSCLC; assay: NCI-60 one-dose screen, 48 h (100 = growth as untreated, 0 = no growth, -100 = all killed); conditions: 10 µM unless noted
The panel holds about 83,000 compounds, 20% with a hit somewhere; the sample as a whole holds those more often. Activity calls are given as the source filed them. Rule for the calls: active = growth percent below 10; inactive = the rest.
Reported growth by item:
propertyName: growth

chemSmiles | propertyName | result
O=C(N=c1oc2ccccc2cc1-c1cc2ccccc2[nH]1)Nc1ccc(Cl)cc1 | growth | 88.1% (inactive)
C(=N/Nc1ncnc2nc[nH]c12)/c1ccccn1 | growth | 24.9% (inactive)
Cc1ccc(-c2nc(N3CCN(C(=O)c4ccc(OC(F)(F)F)cc4)CC3)c3ccccc3n2)cc1 | growth | 88.5% (inactive)
CNCCCNc1nc2ccccc2c2c(=O)c3cc(OC)ccc3sc12 | growth | 87.4% (inactive)
CCCCNc1nc(NN2C(=O)c3cccc4cccc(c34)C2=O)nc(-n2cnc3ccccc32)n1 | growth | 71.8% (inactive)

The reported numbers originate from PubChem BioAssay (NCI).
